pIC50: −log10 of the molar value.
The entries that follow carry pIC50 values tested on Coagulation factor X (Homo sapiens), drawn from several published reports.
Values of pIC50 greater than or equal to 7 map to criterion met; values below map to criterion not met.

N=C(N)c1c(O)c(F)c(CNC(=O)Cn2c(-c3cccc(N)c3)c(Cl)nc(NC3CCC3)c2=O)c(F)c1F : criterion not met
C/C(=C(/F)C(=O)Nc1ccc(-c2ccccc2S(N)(=O)=O)cc1)c1ccc2ccnc(N)c2c1 : criterion not met
CN1CCc2nc(C(=O)N[C@@H]3CN(C(=O)CO)CC[C@@H]3NC(=O)c3cc4cc(Cl)ccc4[nH]3)sc2C1 : criterion met
NS(=O)(=O)c1ccccc1-c1ccc(NC(=O)c2cc(C(F)(F)F)nn2-c2cc3ccccc3cc2F)cc1 : criterion met
COc1ccc(CC(=O)N2CN(c3ccc(N4CCCCC4=O)cc3)C(=O)c3cc(OC)ccc32)cc1 : criterion not met

## Input Please indicate if the recorded pIC50 for `O=C(NC[C@@H]1OC(=O)N2c3ccc(N4CCOCC4=O)cc3OC[C@@H]12)Nc1ccc(Cl)cc1` meets or exceeds 7.
## Output criterion met

## Input Please indicate if the recorded pIC50 for `Nc1nc(-c2ccccn2)nn1C(=O)C1CCOCC1` meets or exceeds 7.
## Output criterion not met

## Input Please indicate if the recorded pIC50 for `O=C(NC[C@@H]1OC(=O)N2c3ccc(N4CCCCC4=O)cc3NC[C@@H]12)c1ccc(Cl)s1` meets or exceeds 7.
## Output criterion met

## Input Please indicate if the recorded pIC50 for `N=C(N)c1ccc(CNC(=O)CN2C(=O)[C@H](NS(=O)(=O)Cc3ccccc3)CSc3cc(CN)ccc32)cc1` meets or exceeds 7.
## Output criterion not met

## Input Please indicate if the recorded pIC50 for `Cc1cc(N2CC[C@@H](NC(=O)c3ccc(-n4cnnc4)cc3Cl)C2)c2onc(N)c2c1Cl` meets or exceeds 7.
## Output criterion not met

* * *

The entries that follow carry IC50 values tested on Coagulation factor X (Homo sapiens), drawn from several published reports.
Number only, in nM; omit the unit.

Reference set, count: 3
N=C(N)c1ccc(O)c(OCC(=O)Nc2ccc(-c3ccccc3S(N)(=O)=O)cc2)c1 : 2.2
CCn1c(COc2ccc(OC3CCN(C(C)=N)CC3)cc2)nc2cc(C(=N)N)ccc21 : 400
O=C(NC[C@@H]1OC(=O)N2c3ccc(N4CCOCC4=O)cc3OC[C@H]12)c1ccc(Cl)s1 : 57.8

## Input // fetch IC50 given entry `N=C(NN)c1ccc(C(=O)Nc2ccccc2C(=O)Nc2ccc(Cl)cn2)cc1`
## Output 25

## Input // fetch IC50 given entry N=C(N)NCCCC(NC(=O)CN1CCN(S(=O)(=O)CCc2cccc3ccccc23)CC1=O)C(=O)c1nccs1 (stereo unspecified)
## Output 3

## Input // fetch IC50 given entry `Cc1cccc(N/C(=N\C(=O)C2CCN(C(=O)c3ccccc3)CC2)N[C@H]2CCCCN(CC(=O)N3CCCC3)C2=O)c1`
## Output 1070

## Input // fetch IC50 given entry `CN1CCCN(c2ccc(C(=O)Nc3c(O[C@@H]4O[C@H](C(=O)O)[C@@H](O)[C@H](O)[C@H]4O)cc(Cl)cc3C(=O)Nc3ccc(Cl)cn3)cc2)CC1`
## Output 1.5

## Input // fetch IC50 given entry `O=C1OC[C@@H](O)[C@H]([C@@H]2OC(=O)c3cc(O)c(O)c(O)c3-c3c(O)c(O)c(O)c4c3C(=O)O[C@H]2[C@H]4O)OC(=O)c2cc(O)c(O)c(O)c2-c2c1cc(O)c(O)c2O`
## Output 280

## Input // fetch IC50 given entry `N=C(N)NCCC[C@H](NC(=O)CNC(=O)[C@@H](CC1CCCCC1)NS(=O)(=O)Cc1ccccc1)C(=O)c1nccs1`
## Output 0.6

## Input // fetch IC50 given entry `CN(C(=O)CCS(=O)(=O)c1ccc2cc(Cl)ccc2c1)C1CCN(c2ccnc(CO)c2)CC1`
## Output 110

## Input // fetch IC50 given entry CN1CCc2nc(C(=O)NC3CNCCC3NC(=O)c3cc4cc(Cl)ccc4[nH]3)sc2C1 (racemic)
## Output 62

## Input // fetch IC50 given entry `CC(=N)N1CCC(Oc2ccc(OCc3nc4cc(C(=N)N)ccc4n3CC(=O)NCCCc3ccccc3)cc2)CC1`
## Output 200
